target system: hGLP-1R (Homo sapiens, UniProt P43220)
measurement description: EC50 (hGLP-1R), nM | "+DPP-IV"
Non-standard residues stand in square brackets, D forms with d. *: point of attachment. (mPEG)2 40 kDa = C3 = Cys(mPEG)2 40 kDa, cysteine PEGylated via side-chain thiol with branched mPEG of 40 kDa; Desaminohistidyl = O=C(CCc1c[nH]cn1)*; Met(O) = CS(=O)CC[C@H](N)C(=O)O; Aib = CC(C)(N)C(=O)O
measured endpoint: EC50 (nM)

- H2αQGTFTSDYSKYLDSRRAQDFVQWLmNTKRNRNNIAC5-CONH2 (XXQGTFTSDYSKYLDSRRAQDFVQWLXNTKRNRNNIAX; Aib2, D-Met, C-terminal amide, modified Cys; Synthetic peptide based on the human oxyntomodulin sequence) [OXM112]: 10.9
- H2αQGTFTSDYSKYLDSRRAQDFVQWLmNTKRNRNNIAC4-CONH2 (XXQGTFTSDYSKYLDSRRAQDFVQWLXNTKRNRNNIAX; Aib2, D-Met, C-terminal amide, conjugated Cys; Synthetic peptide based on the human oxyntomodulin sequence) [OXM114]: 0.05

[1] HαQGTFTSDYSKYLDSRRAQDFVQWLmNTKRNRNNIAC3-CONH2 [OXM99]
[2] HαQGTFTSDYSKYLDSRRAQDFVQWLmNTKRNRNNIAC6-CONH2 [OXM100]
[3] H2αDGTFTSDYSKYLDSRRAC3DFVQWLmNTKRNRNNIA-CONH2 ([Desaminohistidyl][Aib]DGTFTSDYSKYLDSRRAC((mPEG)2 40 kDa)DFVQWL[Met(O)]NTKRNRNNIA-NH2) [OXM129]
Arrange these 3 substances in increasing order of EC50. Answer with the labels in sequence, matching the requested order. 1, 3, 2
(1: 27.5 nM, 3: 123 nM, 2: 184 nM)

* * *

target system: hGLP-1R (Homo sapiens)
measurement description: EC50 (hGLP-1R), nM | "-DPP-IV"
Non-standard residues stand in square brackets, D forms with d. *: point of attachment. (mPEG)2 40 kDa = C3 = Cys(mPEG)2 40 kDa, cysteine PEGylated via side-chain thiol with branched mPEG of 40 kDa; Desaminohistidyl = O=C(CCc1c[nH]cn1)*; Met(O) = CS(=O)CC[C@H](N)C(=O)O; Aib = CC(C)(N)C(=O)O
measured endpoint: EC50 (nM)

• HαQGTFTSDYSKYLDSRRAQDFVQWLMC3TKRNRNNIA-CONH2 (HXQGTFTSDYSKYLDSRRAQDFVQWLMXTKRNRNNIA; Aib2, C-terminal amide, conjugated Cys; Synthetic peptide based on the human oxyntomodulin sequence) [OXM109] = 7.6
• HαQGTFTSDYSKYLDSRRAQDFVC3WLmNTKRNRNNIA-CONH2 [OXM107] = 29.7

[A] H2αDGTFTSDYSKYLDSRRAC3DFVQWLmNTKRNRNNIA-CONH2 ([Desaminohistidyl][Aib]DGTFTSDYSKYLDSRRAC((mPEG)2 40 kDa)DFVQWL[Met(O)]NTKRNRNNIA-NH2) [OXM129]
[B] HαDGTFTSDYSKYLDSRRAQDFVQWLmNTKRNRNNIAC4-CONH2 [OXM118]
[C] HαQGTFTSDYSKYLDSRRAQDFVQWLMNTK-CONH2 (HXQGTFTSDYSKYLDSRRAQDFVQWLMNTK; Aib2, C-terminal amide; Synthetic peptide based on the human oxyntomodulin sequence) [OXM130]
Arrange these 3 substances in increasing order of EC50. Answer with the labels in sequence, matching the requested order. B, C, A

* * *

target system: hGLP-1R (Homo sapiens)
measurement description: EC50 (hGLP-1R), nM | "-DPP-IV"
Non-standard residues stand in square brackets, D forms with d. No end group written: not given here. C3 = cysteine residue PEGylated via the side-chain thiol with branched methoxyPEG [(mPEG)2] of 40 kDa (Cys(mPEG)2 40 kDa); Aib = CC(C)(N)C(=O)O
measured endpoint: EC50 (nM)

// below: answered substances
* HαQGTFTSDYSKYLDSRRAC3DFVQWLMNTKRNRNNIA-CONH2 (H[Aib]QGTFTSDYSKYLDSRRA[C3]DFVQWLMNTKRNRNNIA-NH2) [OXM103] | 6.2
* HαQGTFTSDYSKYLDSRRAQC3FVQWLMNTKRNRNNIA-CONH2 (HXQGTFTSDYSKYLDSRRAQXFVQWLMNTKRNRNNIA; Aib2, C-terminal amide, conjugated Cys; Synthetic peptide based on the human oxyntomodulin sequence) [OXM105] | 28.5
* HαQGTFTSDYSKYLDSRRAQDFVQWLmNTKRNRNNIAC3-CONH2 [OXM99] | 7.5
* H2αQGTFTSDYSKYLDSRRAQDFVQWLmNTKRNRNNIAC4-CONH2 (XXQGTFTSDYSKYLDSRRAQDFVQWLXNTKRNRNNIAX; Aib2, D-Met, C-terminal amide, conjugated Cys; Synthetic peptide based on the human oxyntomodulin sequence) [OXM114] | 0.06
* H2αQGTFTSDYSKYLDSRRAQDFVQWLmNTKRNRNNIAC5-CONH2 (XXQGTFTSDYSKYLDSRRAQDFVQWLXNTKRNRNNIAX; Aib2, D-Met, C-terminal amide, modified Cys; Synthetic peptide based on the human oxyntomodulin sequence) [OXM112] | 6.9

[P] HαQGTFTSDYSKYLDSRRAQDFVQWLmNTKRNRNNIAC6-CONH2 [OXM100]
[Q] HαDGTFTSDYSKYLDSRRAC3DFVQWLmNTKRNRNNIA-CONH2 [OXM125]
Of P and Q , which carries the smaller reported EC50 figure? Indicate your choice by writing its label. Q

* * *

In this section, each of the substances is paired with its reported EC50.
target system: hGLP-1R (Homo sapiens, UniProt P43220)
measurement description: EC50 (hGLP-1R), nM | "-DPP-IV"

* HαQGTFTSDYSKYLDSRRAQDC4VQWLmNTKRNRNNIA-CONH2 [OXM127] | > 500 nM

Query: EC50; subject: HαQGTFTSDYC3KYLDSRRAQDFVQWLmNTKRNRNNIA-CONH2 [OXM121] > 125 nM

Query: EC50; subject: HαQGTFTSDYSC3YLDSRRAQDFVQWLmNTKRNRNNIA-CONH2 [OXM124] > 100 nM

Query: EC50; subject: H2αQGTFTSDYSKYLDSRRAQDFVQWLmNTKRNRNNIAC3-CONH2 (XXQGTFTSDYSKYLDSRRAQDFVQWLXNTKRNRNNIAX; Aib2, D-Met, C-terminal amide, conjugated Cys; Synthetic peptide based on the human oxyntomodulin sequence) [OXM113] 93.3 nM

Values were extracted from patent US8268779B2.
